Biological target: T1, Pin3, Q06449
T1 sequence (Q06449 53-122, looked up): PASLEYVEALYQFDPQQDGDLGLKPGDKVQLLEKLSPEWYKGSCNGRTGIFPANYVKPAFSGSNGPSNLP
Assay: SPOT array
Settings: median of control spots 2171
In plain terms, low SPOT intensity, meaning strictly below 7, gives 1 (yes), and everything else gives 0 (no).

Just wondering, is SPOT intensity of KKAPPPVVKPKPRNF below 7?
1 (yes)

Determine if WRPRIVPILPYITRL shows SPOT intensity strictly lower than 7.
0 (no)

Identify whether the binder MARRRLPDRPPNGIG records SPOT intensity below 7.
0 (no)

# TODO verify SPOT intensity < 7 strictly for this binder: VQPTAAPATPPRHIS
1 (yes)

Lab note: SPOT intensity threshold 7. Does this binder come in strictly under it? QTMRQAPKRPDADVA
0 (no)

Does the reported SPOT intensity of the following binder sit strictly below 7? SSAAPPPPPRRATPE
1 (yes)

Does this binder meet the criterion SPOT intensity < 7? RLPAPPPPPRRGPAP
0 (no)

Please let me know if VLRFLGFPLPIFEKG shows SPOT intensity below 7.
1 (yes)

Field: below-cutoff. Rule: recorded SPOT intensity strictly less than 7. Subject: IRMPSNPALPKKLLN
0 (no)

Quick check: does FPPKRKPLLRPQRSD have SPOT intensity under 7?
0 (no)

Hello, is SPOT intensity of the following binder strictly smaller than 7? NTMKKRPAPPSLPSL
0 (no)

Say whether its SPOT intensity is strictly beneath 7. Entry: SLSRRRFSLPSMPNV
0 (no)

For EQEEIAPSLPSRNSI , is the recorded SPOT intensity below the cut-off of 7?
1 (yes)

Does the reported SPOT intensity of RVTRKRPREPKSTND stay below 7?
1 (yes)

Hi there! Is SPOT intensity for LPMNIQPDLPPRKIM below 7, do you know?
0 (no)

Could you please tell me whether SPOT intensity recorded for GTIARPLFLVVLFFI is less than 7?
1 (yes)

Lab note: confirm whether the reported SPOT intensity for this binder is below 7, equality not counting. binder: KNRKNLPTIPIRLSG
0 (no)

Consider PSRRDSLSIPRAVDA . Does its SPOT intensity lie strictly below 7?
0 (no)

Decide: SPOT intensity of LTRRFPFLFPFDTRM strictly below 7?
0 (no)

Strictly below 7: is that where SPOT intensity of SRYRRPLTLLLLKPF sits?
1 (yes)

Please let me know if QPWTDQFEKLEKEVS shows SPOT intensity below 7.
1 (yes)

Is 7 strictly greater than the binder's reported SPOT intensity? binder: VPKEPAPAPPPEPDM
0 (no)

Below 7 on SPOT intensity? Entry APKHAPPPVPNETDN
1 (yes)

Is 7 strictly greater than the binder's reported SPOT intensity? binder: KIRRSSLMIPNPQQF
0 (no)

Quick check: SPOT intensity of STKKPRPPVKSKPKH under 7?
1 (yes)

Determine whether this binder shows SPOT intensity lower than 7 (ties excluded): FYNRTAFQLPGDARV
0 (no)

Confirm or reject: SPOT intensity of LASNSPPVYPKRIRH lies strictly below 7
1 (yes)

Report whether reported SPOT intensity is lower than 7 (strictly) for DKKTKPTPPPKPSHL
1 (yes)
